# METHOD DESCRIPTION: basal 3T3-L1 adipocyte mitochondrial potential changes, profiling panel, cell-based, JC-1 fluorescence, 3T3-L1 adipocytes, 24 h, 100 nL compound (AID 1168); note: test concentration not given here
# RUN CONDITIONS: JC-1 mitochondrial fluorescence, higher = more signal, called active from +8 up or from −8 down
Think of 0.5 as a floor: if z-score stands on it or above, it is true (1); beneath it, false (0).

1) CC(C)C(CO)N1C(=O)[C@@H]2C3C(=O)OCCC/C=C\[C@H]3OC23C=CCN(CCN2CCOCC2)C(=O)[C@@H]13 (stereo partly drawn) = false (0)
2) C=CC[C@@]1(C(=O)NCCN2CCOCC2)N=C(c2ccc(OCCCO)cc2)O[C@@H]1c1ccccc1N=[N+]=[N-] = true (1)
3) CC(C)=CCN[C@H](CO)c1ccccc1 = false (0)
4) CC(C)C[C@@H]1NC(=O)[C@@H]2C[C@H](C(=O)O)[C@H](c3cccc(OCCO)c3)N2C1=O = false (0)
5) C[N+](C)(C)CCCCCCNC(=O)[C@@H]1C[C@@H]2C(=O)N[C@@H](Cc3ccccc3)C(=O)N2[C@@H]1c1cccc(OCCO)c1 = true (1)
6) O=C1c2ccccc2[C@](Cc2ccccc2I)(C(=O)NCCN2CCOCC2)[C@H](c2ccc(CO)cc2)N1Cc1ccccc1Cl = false (0)
7) C=CCOC(=O)[C@H]1[C@@H]2C(=O)O[C@@H](c3ccccc3)[C@@H](c3ccccc3)N2[C@@H](c2ccc(OCCOC(=O)[C@@H]3C[C@@H]4C(=O)N[C@@H](CCCCNC(C)=O)C(=O)N4[C@@H]3c3ccc(O)cc3)cc2)[C@]12C(=O)Nc1ccccc12 = true (1)
